system: PAMPA; settings: Papp (x 10^-6 cm/s) / [row 6]; UV detection
Starred links: 1 amine or outer side, 2 acyl side, 3 side chain; linkers in the order of their positions; H or OH if unused. Non-standard residues stand in square brackets, D forms with d. Residues, ends and D or L forms follow the SMILES beside them. *: point of attachment. X2 = CCCCC[C@H](O*)C(=O)OCc1ccccc1; X1 = CCCCC[C@H](O[*:1])C(=O)[*:2]; Ahp(2) = CCCCC[C@H](N)C(=O)O; dNMeA = CN[C@H](C)C(=O)O; Boc = CC(C)(C)OC(=O)*; OBn = c1ccc(CO*)cc1
Overview of reported Papp across a group of compounds:
# unit: ×10⁻⁶ cm/s | format: bare number

Record excerpt, results attached:
[
  {
    "COMPOUND": "CCCCC[C@H](NC(=O)[C@@H](C)N(C)C(=O)[C@H](CCCCC)NC(=O)[C@@H](C)N(C)C(=O)[C@H](CCCCC)NC(=O)[C@@H](C)N(C)C(=O)[C@H](CCCCC)NC(=O)[C@@H](C)N(C)C(=O)OC(C)(C)C)C(=O)OCc1ccccc1 [Compound L2.5] (Boc-[dNMeA][Ahp(2)][dNMeA][Ahp(2)][dNMeA][Ahp(2)][dNMeA][Ahp(2)]-OBn)",
    "Papp (×10⁻⁶ cm/s)": 3.13
  },
  {
    "COMPOUND": "CCCCC[C@H](OC(=O)[C@@H](C)N(C)C(=O)[C@H](CCCCC)OC(=O)[C@@H](C)N(C)C(=O)[C@H](CCCCC)OC(=O)[C@@H](C)N(C)C(=O)[C@H](CCCCC)OC(=O)[C@@H](C)N(C)C(=O)OC(C)(C)C)C(=O)OCc1ccccc1 [Compound L1.4]",
    "Papp (×10⁻⁶ cm/s)": 2.09
  },
  {
    "COMPOUND": "CCCCC[C@H](NC(=O)[C@@H](C)N(C)C(=O)[C@H](CCCCC)OC(=O)[C@@H](C)N(C)C(=O)[C@H](CCCCC)NC(=O)[C@@H](C)N(C)C(=O)[C@H](CCCCC)OC(=O)[C@@H](C)N(C)C(=O)OC(C)(C)C)C(=O)OCc1ccccc1 [Compound L2.3] (Boc-[dNMeA][X1][dNMeA][Ahp(2)][dNMeA][X1][dNMeA][Ahp(2)]-OBn)",
    "Papp (×10⁻⁶ cm/s)": 3.19
  },
  {
    "COMPOUND": "CCCCC[C@H](NC(=O)[C@@H](C)N(C)C(=O)OC(C)(C)C)C(=O)N(C)[C@H](C)C(=O)N[C@H](CCCCC)C(=O)N(C)[C@H](C)C(=O)O[C@@H](CCCCC)C(=O)N(C)[C@H](C)C(=O)O[C@@H](CCCCC)C(=O)OCc1ccccc1 (stereo in doubt) [Compound L2.2]",
    "Papp (×10⁻⁶ cm/s)": 2.78
  }
]

Now for the compound whose Papp we want.
Give the measured Papp of CCCCC[C@H](NC(=O)[C@@H](C)N(C)C(=O)OC(C)(C)C)C(=O)N(C)[C@H](C)C(=O)O[C@@H](CCCCC)C(=O)N(C)[C@H](C)C(=O)O[C@@H](CCCCC)C(=O)N(C)[C@H](C)C(=O)O[C@@H](CCCCC)C(=O)OCc1ccccc1 [Compound L2.1] (Boc-[dNMeA][Ahp(2)][dNMeA][X1][dNMeA][X1][dNMeA]-X2) .
3.22

Data origin, for the record: paper PMC11995216
